Cited source for all entries: ChEMBL document CHEMBL1129522

target: Sterol O-acyltransferase 1 (Rattus norvegicus); assay: Acute in vivo activity was measured by the total plasma cholesterol concentration levels(TC) at dose 3 mg/kg; format: functional, organism-based; parameters: dose 3 mg/kg

| compound | Delta TC, % |
| --- | --- |
| CCCCCCCCCCCCOS(=O)(=O)NC(=O)Oc1c(C(C)C)cccc1C(C)C | -63 |
| CCCCCCCCCCN(CCCCCCCCCC)S(=O)(=O)NC(=O)Nc1c(C(C)C)cccc1C(C)C | -17 |
| CC(C)c1cccc(C(C)C)c1NS(=O)(=O)NC(=O)NC(c1ccccc1)c1ccccc1 | -5 |
| CCCCCCOS(=O)(=O)NC(=O)Nc1c(C(C)C)cccc1C(C)C | -8 |
| CC(C)c1cccc(C(C)C)c1OC(=O)NS(=O)(=O)N1CCc2ccccc21 | -31 |
| CC(C)c1cccc(C(C)C)c1OC(=O)NS(=O)(=O)Oc1c(C(C)(C)C)cccc1C(C)(C)C | -46 |
| CC(C)c1cccc(C(C)C)c1OS(=O)(=O)NC(=O)Oc1c(C(C)(C)C)cccc1C(C)(C)C | -50 |
| CCCCCCCCCCCCCCCCOS(=O)(=O)NC(=O)Oc1c(C(C)C)cccc1C(C)C | -42 |
| CC(C)c1cc(O)cc(C(C)C)c1OC(=O)NS(=O)(=O)Oc1c(C(C)C)cccc1C(C)C | -5 |
| CC(C)c1cccc(C(C)C)c1NC(=O)NS(=O)(=O)N(C(C)C)C(C)(C)C | -55 |
| CCCCCCCCN(C)S(=O)(=O)NC(=O)Oc1c(C(C)C)cccc1C(C)C | -57 |
| CC(C)c1cccc(C(C)C)c1OS(=O)(=O)NC(=O)Oc1c(C(C)C)c(C(C)C)c(F)c(C(C)C)c1C(C)C | -47 |
| CC(C)c1cc(C(C)C)c(OC(=O)NS(=O)(=O)Oc2c(C(C)C)cc(C(C)C)cc2C(C)C)c(C(C)C)c1 | -32 |
| CCCCCCCCCCCCOC(=O)NS(=O)(=O)Oc1c(C(C)C)cccc1C(C)C | 1 |
| CCCCCCCCCCCCOS(=O)(=O)NC(=O)Oc1c(C(C)(C)C)cc(C)cc1C(C)(C)C | -41 |
| CC(C)CCN(CCC(C)C)S(=O)(=O)NC(=O)Nc1c(C(C)C)cccc1C(C)C | -66 |
| CCCN(CCC)S(=O)(=O)NC(=O)Nc1c(C(C)C)cccc1C(C)C | -51 |
| CCCCCCC(C)OS(=O)(=O)NC(=O)Nc1c(C(C)C)cccc1C(C)C (stereo not drawn) | 10 |
| CCCCCCCCCCCCCCN(C)S(=O)(=O)NC(=O)Nc1c(C(C)C)cccc1C(C)C | -65 |
| CC(C)CN(CC(C)C)S(=O)(=O)NC(=O)Nc1c(C(C)C)cccc1C(C)C | -61 |
| CCCCCCCCN(CCCCCCCC)S(=O)(=O)NC(=O)Nc1c(C(C)C)cccc1C(C)C | -38 |
| Cc1cc(C(C)(C)C)c(OC(=O)NS(=O)(=O)Oc2ccccc2)c(C(C)(C)C)c1 | -15 |
| CC(C)c1cccc(C(C)C)c1NC(=O)NS(=O)(=O)N(C(C)C)C1CCCCC1 | -60 |
| CC(C)c1cc(C(C)(C)C)cc(C(C)C)c1OC(=O)NS(=O)(=O)Oc1c(C(C)C)cccc1C(C)C | -55 |
| CCCCCCCCCCC(C)OS(=O)(=O)NC(=O)Nc1c(C(C)C)cccc1C(C)C (stereo not drawn) | -48 |
| CC(C)c1cc(C(C)C)c(NC(=O)NS(=O)(=O)Oc2c(C(C)C)cccc2C(C)C)c(C(C)C)c1 | -51 |
| CCCCCN(CCCCC)S(=O)(=O)NC(=O)Nc1c(C(C)C)cccc1C(C)C | -68 |
| COc1cc(C(C)(C)C)c(OC(=O)NS(=O)(=O)NCC(c2ccccc2)c2ccccc2)c(C(C)(C)C)c1 | -15 |
| CCCCCCCCN(CCCCCCCC)S(=O)(=O)NC(=O)Oc1c(C(C)C)cccc1C(C)C | -67 |
| C=CCN(CC=C)S(=O)(=O)NC(=O)Nc1c(C(C)C)cccc1C(C)C | 2 |
| CCCCCCNS(=O)(=O)NC(=O)Oc1c(C(C)C)cccc1C(C)C | -12 |
| CC(C)c1cccc(C(C)C)c1OC(=O)NS(=O)(=O)N(Cc1ccccc1)Cc1ccccc1 | -17 |
| CC(C)c1cc(C(C)C)c(OS(=O)(=O)NC(=O)Oc2c(C(C)C)cccc2C(C)C)c(C(C)C)c1 | -63 |
| CCCCN(C)S(=O)(=O)NC(=O)Nc1c(C(C)C)cccc1C(C)C | -37 |
| COc1cc(OC)c(OS(=O)(=O)NC(=O)Oc2c(C(C)C)cccc2C(C)C)c(OC)c1 | -37 |
| CC(C)c1cccc(C(C)C)c1NC(=O)NS(=O)(=O)N1CCC(c2ccccc2)CC1 | -17 |
| CCCCCCOS(=O)(=O)NC(=O)Oc1c(C(C)(C)C)cc(C)cc1C(C)(C)C | -14 |
| CCCCCCN(CCCCCC)S(=O)(=O)NC(=O)Nc1c(C(C)C)cccc1C(C)C | -63 |
